Tested on: TSSK3
protocol conditions: concentration: 1 μM, replicates: in singlicate; n = 1;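 note: KINOMEscan kinase panel screen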
Reported values of %Inh for individual entries
// return numeric value only (unit: %, not printed)

Worked cases, answers included:
CN(C)c1cc(-c2ccc3c(N)n[nH]c3c2)nc(N)n1: 6
CN1C(=O)C(Nc2cc(Cl)c(O)c(Cl)c2)=C(c2ccc(Cl)cc2)C1=O: 22
COc1cc2ncn(-c3cc(OCCCc4ccccc4)c(C(N)=O)s3)c2cc1OC: 10
COC(=O)c1c(-c2ccccc2)c2cc(Br)ccc2c(=O)n1Cc1ccc(S(C)(=O)=O)cc1: 0
CCCC(=O)Nc1n[nH]c2ncc(-c3cccc4ccccc34)cc12: 0
FC(F)(F)c1ccc(-c2ncn(CCCN3CCOCC3)c2-c2ccncc2)cc1: 0

Read the next record carefully.
Item: CCC(=O)c1c(-c2ccccc2)c2cc(Cl)ccc2c(=O)n1Cc1cc(C(=O)NC2CC2)n(C)n1 | %Inh: 0

---

Tested on: SYK
protocol conditions: concentration: 1 μM, replicates: in singlicate; n = 1
observable: %Inh (%)
// return numeric value only (unit: %, not printed)

Worked cases, answers included:
COC(=O)c1c(-c2ccccc2)c2cc(Br)ccc2c(=O)n1Cc1ccc(S(C)(=O)=O)cc1: 0
COc1cc(Nc2nccc(N3CCC(NC(=O)C4COc5ccccc5O4)C3)n2)cc(OC)c1OC (stereo not drawn) [GSK1379761]: 44

Item: CCc1ccc(-c2ccc3c(c2)-c2nn(C)cc2S(=O)(=O)N3C)cc1 | %Inh: 27

Item: Cl.c1ccc(Cn2cnc3cc(Nc4ncnc5ccccc45)ccc32)cc1 [GW272142] | %Inh: 11

Item: CCc1nc(-c2cccc(C)c2)c(-c2ccncc2)s1 | %Inh: 23

Item: O=C(Nc1n[nH]c2nc(-c3ccccc3)c(Cl)cc12)C1CC1 [SB-734909] | %Inh: 0

Item: O=C(NCc1cccs1)c1cc(C(=O)c2c(Cl)cccc2Cl)c[nH]1 [GW823670] | %Inh: 6

Item: COc1cc(Nc2ccnc3ccc(C(F)(F)F)cc23)cc(OC)c1OC [GW577382] | %Inh: 37

Item: Fc1cccc(CSc2nnc(-c3ccc4c(c3)CCO4)o2)c1 | %Inh: 0

---

Reported values of %Inh for individual entries
Tested on: EPHA6
protocol conditions: concentration: 1 μM, replicates: in singlicate; n = 1
// return numeric value only (unit: %, not printed)

Worked cases, answers included:
Nc1ncnc2c1ncn2-c1cccc(F)c1: 0
CC(C)(C)c1ccc(C(=O)Nc2cn3cc(-c4ccccc4)ccc3n2)cc1: 0
Cc1cc(Nc2nc(-c3cccc(C)n3)nc3ccccc23)ccn1: 0
O=C(NCc1cccs1)c1cc(C(=O)c2c(Cl)cccc2Cl)c[nH]1: 0
COc1ccc(Nc2nccc(N3CCC(NS(=O)(=O)c4ccc(NC(C)=O)cc4)C3)n2)cc1 (stereo not drawn): 31
Nc1nc(N)c2nc(-c3ccccc3)[nH]c2n1: 8

Item: Nc1n[nH]c2nnc(-c3ccccc3)c(-c3ccccc3)c12 | %Inh: 28

Item: COc1cccc(C2=C(Nc3cccc(C(=O)O)c3)C(=O)NC2=O)c1 | %Inh: 11

Item: Cl.NS(=O)(=O)c1cccc(Nc2cc(-c3ccc(F)cc3)n[nH]2)c1 | %Inh: 0

---

System: ZAP70
protocol conditions: concentration: 1 μM, replicates: in singlicate; n = 1
observable: %Inh (%)
// return numeric value only (unit: %, not printed)

CCc1ccc(-c2ccc3c(c2)-c2nn(C)cc2S(=O)(=O)N3C)cc1: 0

Entry COc1cc(Nc2ccnc3ccc(C(F)(F)F)cc23)cc(OC)c1OC ; assay system ZAP70; %Inh recorded at 0

Entry CCc1nc(-c2cccc(C)c2)c(-c2ccncc2)s1 ; assay system ZAP70; %Inh recorded at 0
